As shown below, each of these binders has a reported Activity at 133 nM (% Inhibition), 24-hour Pre-incubation at 37° C., N = 2 value.
STUDY_SYSTEM: KDR (human, UniProt P35968 20-1356)
Sequence (P35968 20-1356): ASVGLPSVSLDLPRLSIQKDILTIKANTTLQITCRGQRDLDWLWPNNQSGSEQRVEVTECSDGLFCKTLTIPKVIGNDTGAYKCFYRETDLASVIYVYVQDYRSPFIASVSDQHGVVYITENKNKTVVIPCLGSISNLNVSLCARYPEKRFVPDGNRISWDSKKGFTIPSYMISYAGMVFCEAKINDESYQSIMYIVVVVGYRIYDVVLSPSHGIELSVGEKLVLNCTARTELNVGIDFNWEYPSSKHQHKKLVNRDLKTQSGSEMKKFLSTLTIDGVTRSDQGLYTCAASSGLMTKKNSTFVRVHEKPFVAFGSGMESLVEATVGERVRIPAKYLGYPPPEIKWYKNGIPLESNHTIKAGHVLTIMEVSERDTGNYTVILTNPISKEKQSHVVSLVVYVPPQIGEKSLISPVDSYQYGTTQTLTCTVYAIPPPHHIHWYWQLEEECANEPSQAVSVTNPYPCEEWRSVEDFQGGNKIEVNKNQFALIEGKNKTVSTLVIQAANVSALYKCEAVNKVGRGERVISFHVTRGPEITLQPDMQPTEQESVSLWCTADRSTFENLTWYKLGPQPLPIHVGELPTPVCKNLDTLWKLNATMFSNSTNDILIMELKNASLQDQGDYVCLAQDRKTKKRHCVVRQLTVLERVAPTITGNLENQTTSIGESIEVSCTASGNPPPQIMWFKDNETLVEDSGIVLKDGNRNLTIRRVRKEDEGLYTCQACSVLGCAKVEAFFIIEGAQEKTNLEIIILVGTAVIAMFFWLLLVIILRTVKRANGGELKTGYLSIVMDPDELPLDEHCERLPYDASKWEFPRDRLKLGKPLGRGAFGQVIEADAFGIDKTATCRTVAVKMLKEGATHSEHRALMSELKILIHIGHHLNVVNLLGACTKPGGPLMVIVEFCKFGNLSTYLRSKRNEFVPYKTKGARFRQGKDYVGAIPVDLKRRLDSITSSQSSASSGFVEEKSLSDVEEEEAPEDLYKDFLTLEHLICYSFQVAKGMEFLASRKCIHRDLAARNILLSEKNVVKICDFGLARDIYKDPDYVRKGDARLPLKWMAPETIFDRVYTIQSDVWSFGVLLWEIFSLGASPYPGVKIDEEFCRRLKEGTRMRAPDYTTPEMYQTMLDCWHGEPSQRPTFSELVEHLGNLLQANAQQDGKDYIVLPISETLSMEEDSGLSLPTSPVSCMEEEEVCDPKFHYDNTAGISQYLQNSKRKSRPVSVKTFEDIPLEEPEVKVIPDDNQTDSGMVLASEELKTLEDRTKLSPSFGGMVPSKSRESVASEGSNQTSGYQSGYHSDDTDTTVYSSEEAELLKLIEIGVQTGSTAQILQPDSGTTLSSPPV
METHOD_SUMMARY: cell-based or functional assay
Please state the figure in %; there is no need to write the unit.

Below are worked cases with known answers.
Kindly indicate its recorded Activity at 133 nM (% Inhibition), 24-hour Pre-incubation at 37° C., N = 2. Item: 30D7 (antibody, V domains shown) VH: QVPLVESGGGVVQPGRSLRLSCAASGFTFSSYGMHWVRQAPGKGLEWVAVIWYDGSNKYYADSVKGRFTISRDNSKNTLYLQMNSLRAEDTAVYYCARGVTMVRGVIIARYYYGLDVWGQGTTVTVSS VL: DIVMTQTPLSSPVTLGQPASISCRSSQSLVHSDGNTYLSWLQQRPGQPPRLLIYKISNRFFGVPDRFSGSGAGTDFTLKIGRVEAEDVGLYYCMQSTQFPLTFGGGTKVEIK
37

Specify measured Activity at 133 nM (% Inhibition), 24-hour Pre-incubation at 37° C., N = 2 for 33C3 (antibody, V domains shown) VH: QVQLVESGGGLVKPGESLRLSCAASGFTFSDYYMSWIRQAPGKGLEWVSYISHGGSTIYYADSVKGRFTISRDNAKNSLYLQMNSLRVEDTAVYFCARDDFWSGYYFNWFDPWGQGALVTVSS VL: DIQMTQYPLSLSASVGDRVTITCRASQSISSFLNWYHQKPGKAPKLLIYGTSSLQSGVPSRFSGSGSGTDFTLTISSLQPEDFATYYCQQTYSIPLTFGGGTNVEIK .
88

Continue with the binder presented below.
Write down Activity at 133 nM (% Inhibition), 24-hour Pre-incubation at 37° C., N = 2 measured for item 33B1 (antibody, V domains shown) VH: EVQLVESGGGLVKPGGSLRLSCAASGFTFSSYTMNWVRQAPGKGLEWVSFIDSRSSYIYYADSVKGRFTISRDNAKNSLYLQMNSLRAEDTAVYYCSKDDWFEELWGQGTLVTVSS VL: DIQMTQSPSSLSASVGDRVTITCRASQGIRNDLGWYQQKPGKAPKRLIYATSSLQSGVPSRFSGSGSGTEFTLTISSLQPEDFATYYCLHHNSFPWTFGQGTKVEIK
82
